System: DU-145 prostate
TEST NAME: NCI tumour cell line growth inhibition, 48 h
Quick list: TGI per entry.

# MOLECULE, TGI
measured = [
    ("Oc1ccc(-c2csc(NNC3=NC/C(=C/c4ccc5c(c4)OCO5)S3)n2)cc1O", "> 100 µM"),
    ("COc1ccc2nc3cc(Cl)ccc3c(NCCCN(Cc3cc(OC)c(OC)c(OC)c3)Cc3cc(OC)c(OC)c(OC)c3)c2c1", "27.3 µM"),
    ("Cc1ccc(S(=O)(=O)OC2CCN(C)CC2)cc1", "> 100 µM"),
    ("C=C1C(=O)O[C@H]2[C@H]1CC/C(CNC(=O)Cc1c[nH]c3ccccc13)=C\\CC[C@@]1(C)O[C@@H]21", "12.3 µM"),
    ("CC(=O)OC1=c2ccccc2=C(O)C2C1C=NN2C(C)=O (stereo not given)", "> 100 µM"),
    ("COc1ccccc1NC(=O)c1sc2nc3c(cc2c1N)C(=O)CCC3", "> 100 µM"),
    ("CCOC(=O)c1ccc2[nH]c(-c3ccc(S(=O)(=O)F)cc3)cc(=O)c2c1", "> 100 µM"),
    ("CC(=O)NCCc1c2c(c3nccc4c3c1Nc1ccccc1-4)OCS2", "2.48 µM"),
    ("CC(C)(C)OC(=O)NCCCCC(N)C(N)=O (stereo not given)", "> 100 µM"),
    ("CCC(C#N)(c1ccccc1)N(CCc1ccccc1)C(=O)c1ccccc1 (stereo not given)", "> 100 µM"),
]

====

Tested on: UACC-257 melanoma
TEST NAME: NCI tumour cell line growth inhibition, 48 h
Quick list: TGI per entry.

# COMPOUND, TGI
rows = [
    ("O=C(Nc1nnc(-c2ccccc2)o1)C(SC(=S)N1CCCCC1)c1ccccc1 (centres undefined)", "> 100 µM"),
    ("CCCCCC(C)(C)CCC(=O)OC1OC(COC2OC(COC3OC(CO)C(O)C(O)C3O)C(O)C(O)C2O)C(O)C(O)C1O (centres undefined)", "> 100 µM"),
    ("Nc1ncnc2c1ncn2C1OC(COP(=O)(O)O)C(O)C1O (centres undefined)", "> 50 µM"),
    ("O=C1c2c(Cl)c(Cl)c(Cl)c(Cl)c2C(=O)N1CCN(c1c(Cl)ssc1=O)c1c(Cl)ssc1=O", "31.5 µM"),
]

====

Test system: DU-145 prostate
TEST NAME: NCI tumour cell line growth inhibition, 48 h; in the data active means GI50 below about 0.43 µM; inactive means the rest
Outcome codes: active, inactive

# COMPOUND, LABEL VALUE
records = [
    ("N#Cc1c(-c2ccccc2)nc(SCC2CO2)nc1N1CCOCC1 (stereo unspecified)", "inactive"),
    ("N=C(N)c1ccc(OCc2cccc(COc3ccc(C(=N)N)cc3)c2)cc1", "inactive"),
    ("Cc1cccc(NC(=O)CCc2ccc(N3C(N)=NC(N)=NC3(C)C)cc2)c1", "inactive"),
    ("O=C1c2ccccc2-c2c1c1ccccc1c(=O)n2CCCCNCCCn1c2c(c3ccccc3c1=O)C(=O)c1ccccc1-2", "active"),
    ("COc1ccccc1NC(=O)c1sc2nc3c(cc2c1N)C(=O)CCC3", "inactive"),
    ("F", "inactive"),
]

====

System: K-562 leukemia
TEST NAME: NCI tumour cell line growth inhibition, 48 h
Quick list: TGI per entry.

# COMPOUND, TGI
data = [
    ("CC(C)(C)c1cc(C(=O)Nc2cc(Br)c(Br)cc2S(N)(=O)=O)cc(C(C)(C)C)c1O", "25.7 µM"),
    ("CCOC(=O)c1c2c3c(cccc3[nH]c1=O)Sc1ncccc1-2", "> 100 µM"),
    ("NC(Cc1ccc(S(=O)(=O)O)cc1)C(=O)NC(CCCCNC(=O)NCCCCC(NC(=O)C(N)Cc1ccc(S(=O)(=O)O)cc1)C(=O)NC(Cc1ccc(S(=O)(=O)O)cc1)C(=O)O)C(=O)NC(Cc1ccc(S(=O)(=O)O)cc1)C(=O)O (centres undefined)", "> 100 µM"),
    ("C=C(CN(C)C)C(=O)c1ccccc1C", "45.9 µM"),
    ("CC1CC(C)C(O)C(C2CC(CC(=O)NC3CCCCC3)CC(=O)O2)C1 (centres undefined)", "> 100 µM"),
    ("Fc1ccc2[nH]cc(-c3nc(-c4c[nH]c5ncccc45)cs3)c2c1", "> 100 µM"),
    ("ON/N=C/c1cc2c(cc1Br)OCO2", "> 386 µM"),
    ("COc1ccc(-c2cc(-c3cc(Cl)ccc3Cl)nc3n[nH]c(N)c23)cc1", "> 100 µM"),
    ("Nc1cc2c3c(c1)Oc1cc(N)cc4c1C3c1c(cc(N)cc1O4)O2", "> 100 µM"),
]
